Assignment: determine reported folding stability dG for the given variants.
B1: 1ZHC (parent)
chain: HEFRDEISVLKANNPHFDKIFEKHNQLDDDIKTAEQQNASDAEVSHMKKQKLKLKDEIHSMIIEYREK

# Variants of: B1
# ASSAY_INFO: folding stability dG (cDNA display proteolysis); higher = more stable
# CONDITION_SUMMARY: PBS, room temperature
The response must be a number in kcal/mol with no trailing unit.

Recorded folding stability dG of K11Q , please.
0.591

Repeat with E22K
1.57

Then what about the variant E6R ?
0.234

Would you mind doing N13F as well?
0.565

Same question for E35Q please.
1.17

Okay, and E43T ?
0.763

Moving on to the next variant: D29R
1.67

How about this variant: R66L
1.07

Same question, H16I this time
0.609

Now give it for K49I too.
1.18

// repeat for E35G and report
-0.433

Would you kindly repeat that for D56I ?
1.25

Now give it for D28H too.
0.757

Consider next the variant H1T in the same way.
0.856

Could you do the same for E35N , please?
0.058

Note, next up: E22V
0.395

Same question, I62V this time
0.282

Could you do the same for P15K , please?
0.313

Also K23D ?
0.146

Another variant to check: N38M
0.449

// next record L54C
-0.495

And then K53M , what is it?
1.05
